tested target: glutamate-activated channels of the GRIN1/2A subtype stably transfected in HEK 293 cells (Homo sapiens (Human), UniProt Q05586+Q12879)
Sequence (Q12879 whole entry, looked up, other chains not shown): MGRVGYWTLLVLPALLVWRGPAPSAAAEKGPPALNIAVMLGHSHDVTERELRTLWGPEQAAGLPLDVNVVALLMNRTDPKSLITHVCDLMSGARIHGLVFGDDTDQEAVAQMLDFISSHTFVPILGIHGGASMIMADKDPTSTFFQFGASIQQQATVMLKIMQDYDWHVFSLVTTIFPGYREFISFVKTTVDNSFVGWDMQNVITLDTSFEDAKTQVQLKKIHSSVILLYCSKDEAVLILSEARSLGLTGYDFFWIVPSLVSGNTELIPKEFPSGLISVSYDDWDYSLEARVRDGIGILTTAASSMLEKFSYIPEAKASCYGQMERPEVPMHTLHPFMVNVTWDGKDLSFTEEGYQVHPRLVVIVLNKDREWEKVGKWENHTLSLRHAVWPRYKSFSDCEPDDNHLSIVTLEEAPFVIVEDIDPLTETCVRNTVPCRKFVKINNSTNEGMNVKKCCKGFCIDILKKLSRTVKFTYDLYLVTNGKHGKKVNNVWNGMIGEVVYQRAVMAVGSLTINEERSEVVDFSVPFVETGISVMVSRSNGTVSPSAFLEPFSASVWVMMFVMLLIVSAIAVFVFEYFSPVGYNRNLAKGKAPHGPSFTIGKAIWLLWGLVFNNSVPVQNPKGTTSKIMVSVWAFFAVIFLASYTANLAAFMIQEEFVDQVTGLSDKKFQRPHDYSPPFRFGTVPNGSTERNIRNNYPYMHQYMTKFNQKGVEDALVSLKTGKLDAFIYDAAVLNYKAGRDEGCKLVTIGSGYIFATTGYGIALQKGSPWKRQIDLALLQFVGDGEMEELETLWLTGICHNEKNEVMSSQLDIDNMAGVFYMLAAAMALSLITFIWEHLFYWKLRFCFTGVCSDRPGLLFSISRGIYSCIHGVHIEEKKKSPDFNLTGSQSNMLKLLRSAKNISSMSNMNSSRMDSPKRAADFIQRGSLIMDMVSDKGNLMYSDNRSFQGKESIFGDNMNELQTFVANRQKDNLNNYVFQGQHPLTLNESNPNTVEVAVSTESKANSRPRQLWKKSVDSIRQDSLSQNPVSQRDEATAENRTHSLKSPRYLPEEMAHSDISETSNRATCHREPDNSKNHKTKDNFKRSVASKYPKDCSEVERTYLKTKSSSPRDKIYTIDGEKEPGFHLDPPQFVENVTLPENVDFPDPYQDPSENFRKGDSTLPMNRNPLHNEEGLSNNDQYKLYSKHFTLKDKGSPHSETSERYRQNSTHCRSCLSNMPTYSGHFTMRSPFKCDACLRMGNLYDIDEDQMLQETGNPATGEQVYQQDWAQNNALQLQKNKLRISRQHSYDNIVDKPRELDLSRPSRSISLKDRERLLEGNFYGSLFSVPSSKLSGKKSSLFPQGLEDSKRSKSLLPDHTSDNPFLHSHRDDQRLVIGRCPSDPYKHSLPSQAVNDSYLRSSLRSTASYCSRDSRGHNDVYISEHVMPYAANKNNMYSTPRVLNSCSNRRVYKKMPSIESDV
test description: Automated patch-clamp system (QPatch HTX), percent potentiation at 1 μM
Format: cell-based
particulars: HEK293, 1 μM test compound, 300 μM NMDA with 8 μM glycine, HEK 293 GRIN1/2A, read-out: GluN2A PCA % potentiation at 1 μM
Method: NMDA potentiation in mammalian cells which expressed NMDA receptors was assessed using the automatic patch-clamp system can be used determine the NAM activity of compounds as described below. An whole cell patch-clamp system can be used determine the PAM activity of compounds as described below. Automated Patch-Clamp System (OPatch HTX): […]
measure name: activation at 1 µM

{"mol": "CC[C@]1(O)CC[C@@]2(C)C(=CC[C@H]3[C@@H]4CC[C@H]([C@H](C)[C@@H](O)CC5CCCC5)[C@@]4(C)CC[C@@H]32)C1", "activation at 1 µM": "-40 to -10%"}
{"mol": "CC[C@]1(O)CC[C@@]2(C)[C@H](CC[C@@H]3[C@@H]2CC[C@]2(C)[C@@H]([C@H](C)[C@@H](O)CC4CCCC4)CC[C@@H]32)C1", "activation at 1 µM": "-40 to -10%"}

# context switch: different compound, same activation at 1 µM
query: Requested field: activation at 1 µM. Item: CC[C@]1(O)CC[C@@]2(C)[C@@H](CC[C@@H]3[C@@H]2CC[C@]2(C)[C@@H]([C@H](C)[C@@H](O)CC4CCC(C)(C)CC4)CC[C@@H]32)C1
result: < -40%
